Hey, just so you know, these numbers are from patent US9567301B2.

- System tested: c-Myc/Max/Ebox DNA (Homo sapiens)
- Sequence (P01106 16-454): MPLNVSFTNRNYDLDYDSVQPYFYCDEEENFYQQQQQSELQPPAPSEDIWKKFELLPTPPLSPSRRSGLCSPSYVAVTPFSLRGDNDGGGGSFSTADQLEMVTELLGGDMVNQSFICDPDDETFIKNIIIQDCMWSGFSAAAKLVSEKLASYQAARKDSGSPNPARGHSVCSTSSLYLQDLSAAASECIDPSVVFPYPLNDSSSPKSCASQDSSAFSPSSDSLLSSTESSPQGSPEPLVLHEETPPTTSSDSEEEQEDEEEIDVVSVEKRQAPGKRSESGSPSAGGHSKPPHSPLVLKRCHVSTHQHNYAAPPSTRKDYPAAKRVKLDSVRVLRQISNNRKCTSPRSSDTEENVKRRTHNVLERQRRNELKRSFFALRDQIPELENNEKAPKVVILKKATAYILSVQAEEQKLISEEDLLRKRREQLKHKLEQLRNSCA
- Assay procedure: c-Myc/Max/Ebox DNA AlphaScreen assay
- Assay type: binding
- Set-up: An exemplary assay uses full-length human c-Myc and Max proteins; his6 (cleaved yes); made in house
- Conditions: c-Myc/Max/Ebox DNA AlphaScreen; NA: inactive under assay conditions; read-out: Biochemical IC50
pIC50: −log10 of the molar value.
Grouping by measured pIC50 is done with the following cut points: lower band: < 4; central band: ≥ 4 and < 5; upper band: ≥ 5

{"columns": ["Compound", "System tested", "Category label"],
 "data": [
  ["Cc1ccc(C)n1-c1cc(C(=O)N/N=C/c2cccc3ncccc23)ccc1C(=O)O", "c-Myc/Max/Ebox DNA (Homo sapiens)", "central band"],
  ["Cc1ccc(C)n1-c1ccccc1/C=C/C(=O)O", "c-Myc/Max/Ebox DNA (Homo sapiens)", "lower band"],
  ["Cc1ccc(C)n1-c1cc(C(=O)N/N=C/c2ccc3c(c2)OCCN3C)ccc1C(=O)O", "c-Myc/Max/Ebox DNA (Homo sapiens)", "central band"]
]}

Kindly state the category for this compound: Cc1ccc(C)n1-c1cc(C(=O)NN)ccc1C(=O)O [Compound 70]
upper band

Kindly state the category for this compound: Cc1ccccc1N1C(=O)NC(=O)/C(=C\c2cc(C)n(-c3ccccc3C(=O)O)c2C)C1=O
lower band

Kindly state the category for this compound: Cc1ccc(C)n1-c1cc(C(=O)N/N=C/c2ncc[nH]2)ccc1C(=O)O
upper band

Kindly state the category for this compound: Cc1cc(Br)c(-n2c(C)ccc2C)c(C(=O)O)c1
central band

Kindly state the category for this compound: Cc1ccc(C)n1-c1ccc(C(=O)O)c(O)c1 [Compound 5]
upper band

Kindly state the category for this compound: CCCCC(=O)Nc1ccc(N2CCC(C)CC2)c(C(=O)O)c1
lower band

Kindly state the category for this compound: Cc1ccc(C)n1-c1ccccc1C(=O)O
central band
